The origin of these recorded values is ChEMBL document CHEMBL1201862.

# Tested on: SNB-19
# protocol-details: NCI tumour cell line growth inhibition, 48 h
Calls of active or inactive are those of the source. No stated cut-off is given here; in the data, active = GI50 up to about 1.1 µM and inactive = higher.
The reply should name one outcome from yes = active, no = inactive

Sample answers from the record:
                                   molecule  study_system  assigned_category
0  CN(C)CC(/C(Cc1ccccc1)=N\NC(=O)C[n+]1ccccc1)c1ccccc1 (stereo unspecified)        SNB-19                 no
1  C/N=C(\Nc1cccc(C(F)(F)F)c1)SCc1ccc(N=C=S)cc1        SNB-19                 no
2        O=c1oc2ccccc2cc1-c1cn2cc(Cl)ccc2n1        SNB-19                yes
3  CC(Br)C(=O)NC(CO)C(=O)O (stereo unspecified)        SNB-19                 no
4            CN(C)c1ccc2c3c(c(=O)oc2c1)CCC3        SNB-19                 no
5  CC/C=C\C/C=C\C/C=C\CCCCCCCC(=O)OCC(O)CO (stereo unspecified)        SNB-19                 no
6   CCCC(=O)Oc1ccc2c(C)cc(=O)oc2c1OC(=O)CCC        SNB-19                 no
7  CC12CCC(O)CC1CCC1C2CCC2(C)C(C(=O)CC(O)C(F)(F)F)CCC12 (stereo unspecified)        SNB-19                 no
8  COc1cc([C@@H]2c3cc4c(cc3[C@@H](NCc3ccccc3)C3COC(=O)[C@@H]32)OCO4)cc(OC)c1O (stereo partly specified)        SNB-19                 no
9  CO[C@H](C(=O)O[C@H]1C(=O)N2CCC3CCC1C32C)c1ccccc1 (stereo partly specified)        SNB-19                 no

What was the test verdict on Cc1ccc(C(=O)Cn2c(C(=O)/C=C/c3cccs3)nc3ccccc32)cc1 ?
no

What was the test verdict on O=C1C=C(Br)c2c(-c3ccccc3)oc3cccc1c23 ?
no

What was the test verdict on C[C@@]12CCC(=O)C=C1CC[C@H]1C2=CC[C@]2(C)C1CC[C@@]2(C)O (stereo partly specified) ?
no

What was the test verdict on CN=S(=O)(C[C@]1(O)CC2OC1C1OC(C)(C)OC21)c1ccccc1 (stereo partly specified) ?
no

What was the test verdict on O=c1c2ccccc2[nH]c(=S)n1-c1ccc(/N=N/c2cccc3cc(O)ccc23)cc1 ?
no

What was the test verdict on CC1C(c2ccc(Cl)cc2)c2cc3c(cc2OC1N1CCOCC1)OCO3 (stereo unspecified) ?
no

###

# Test system: SF-295
# protocol-details: NCI tumour cell line growth inhibition, 48 h
Active and inactive are the calls of the source. Rule as the data show it: active = GI50 up to about 1.1 µM and inactive = higher.
Quick reference: GI50 of the listed items.

In [3]: df
Out[3]:
                          compound  property_name               value
0  Cc1c(C)c2ccc3oc4ccccc4c3c2oc1=O           GI50  67.3 µM (inactive)

Next up:
For the compound COc1ccc(NC(=O)C(=O)NO)c(OC)c1 , report GI50.
14 µM (inactive)

###

Quick reference: GI50 of the listed items.
# Test system: U-251
# protocol-details: NCI tumour cell line growth inhibition, 48 h
Calls of active or inactive are those of the source. No stated cut-off is given here; in the data, active = GI50 up to about 1.1 µM and inactive = higher.

Worked examples follow.
                                   compound  study_system               value
0  COc1cc2c(cc1O)CC[C@@H]1C2CC[C@@]2(C)C1CC[C@@H]2O (stereo partly drawn)         U-251  1.16 µM (inactive)
1  Cc1cc(NS(=O)(=O)c2ccc(Nc3c4ccccc4nc4c(C(=O)NCCO)cccc34)cc2)no1         U-251  27.7 µM (inactive)

Next up:
For the compound COC1=C(Br)[C@H](O)[C@@]2(C=C1Br)CC(C(=O)NCCCOc1c(Br)cc(C(O)CNC(C)=O)cc1Br)=NO2 (stereo partly drawn) , report GI50.
> 10 µM (inactive)

###

Quick reference: GI50 of the listed items.
# Test system: XF498
# protocol-details: NCI tumour cell line growth inhibition, 48 h
Activity calls are given as the source filed them. No stated cut-off is given here; in the data, active = GI50 up to about 1.1 µM and inactive = higher.

                                   compound                value
0  CN(C)C(=O)/N=c1\ss/c(=N\C(=S)N(C)C)n1-c1ccccc1   43.7 µM (inactive)
1  CCOP1(=O)C=C(C)C(=C(Cl)Cl)C(C)=C1 (centres undefined)    0.548 µM (active)
2       COc1ccc2cc3c4cc(OC)c(OC)cc4ccn3c2c1  > 100 µM (inactive)

For the compound CN1CCN=C1c1nnn(-c2ccc([N+](=O)[O-])cc2)c1-c1ccccc1 , report GI50.
89.3 µM (inactive)

For the compound CN=S(=O)(C[C@]1(O)CC2OC1C1OC(C)(C)OC21)c1ccccc1 (some centres undefined) , report GI50.
> 100 µM (inactive)

For the compound C/C=C/C(C#N)O[Si](C)(C)C (centres undefined) , report GI50.
> 100 µM (inactive)

For the compound CC1(C)C2CCC3(OCCO3)C1C1OC12 (centres undefined) , report GI50.
> 100 µM (inactive)

For the compound CCCSc1nc(COC(=O)NC)c(COC(=O)NC)n1C , report GI50.
> 100 µM (inactive)

For the compound CCOC(=O)c1c(-c2ccccc2)c(C(OC(c2ccccc2)c2c(-c3ccccc3)c(C(=O)OCC)n3ccccc23)c2ccccc2)c2ccccn12 (centres undefined) , report GI50.
> 100 µM (inactive)

For the compound CO[C@H](C(=O)O[C@H]1C(=O)N2CCC3CCC1C32C)c1ccccc1 (some centres undefined) , report GI50.
> 100 µM (inactive)

For the compound C/C(=C/c1c(C)[nH]c(=O)[nH]c1=O)C(=O)O , report GI50.
> 1370 µM (inactive)

For the compound O=S(=O)(N/N=C/c1c(Cl)cccc1Cl)c1ccccc1 , report GI50.
68.4 µM (inactive)

For the compound COc1cc([C@@H]2c3cc4c(cc3[C@@H](NCc3ccccc3)C3COC(=O)[C@@H]32)OCO4)cc(OC)c1O (some centres undefined) , report GI50.
13.2 µM (inactive)

For the compound NC(=S)N/N=C/C(O[C@@H](/C=N/NC(N)=S)CO)n1cnc2c(N)ncnc21 (some centres undefined) , report GI50.
> 100 µM (inactive)

###

# System: RXF 393
# protocol-details: NCI tumour cell line growth inhibition, 48 h
The source made the active and inactive calls. Cut-off read from the data, not from the text of the source: active = GI50 up to about 1.1 µM and inactive = higher.
The reply should name one outcome from yes (active), no (inactive)

Sample answers from the record:
>>> df
                                   molecule  assigned_category
0  COc1ccc2[nH]c3c(C)c4ccnc(NCCCN(C)CCCNc5ccc6ncn7c8ccccc8c(=O)c5c67)c4c(C)c3c2c1                yes
1  Cc1cc(S(=O)(=O)Nc2nncn2-c2ccc(Cl)cc2)c(S)cc1Cl                 no
2  COC(=O)c1ncc2c(=O)[nH]c3ccccc3c2c1C(=O)OC                 no
3  CC(=O)[O-].[Zn+].c1ccc(/C(=N\Nc2ccccn2)c2ccccn2)cc1                yes
4  CCn1c(-c2ccc(C)cc2)cs/c1=N\C(P(=O)(O)O)P(=O)(O)O                 no

What was the test verdict on O=C1C=C(Br)c2c(-c3ccccc3)oc3cccc1c23 ?
no

What was the test verdict on C[C@@H](CO)C1=C(O)C(=O)c2c(ccc3c2CCCC3(C)C)C1=O ?
no

###

# Tested on: MOLT-4
# protocol-details: NCI tumour cell line growth inhibition, 48 h
Active and inactive are the calls of the source. No stated cut-off is given here; in the data, active = GI50 up to about 1.1 µM and inactive = higher.
The reply should name one outcome from active, inactive

Sample answers from the record:
compound	study-system	assigned-category
O=C(NCCOC(=O)CCCCCCCCC(=O)OCCNC(=O)NC(=O)c1cn(Cc2ccccc2)c(=O)[nH]c1=O)NC(=O)c1cn(Cc2ccccc2)c(=O)[nH]c1=O	MOLT-4	inactive
COc1cc([C@@H]2c3cc4c(cc3[C@@H](NCc3ccccc3)C3COC(=O)[C@@H]32)OCO4)cc(OC)c1O (some centres not stated)	MOLT-4	active
[N-]=[N+]=CC(=O)OCCCCl	MOLT-4	inactive
C=C1CC(C#N)(C#N)[C@@H]2CC3CCCC3[C@H]12.C=C1CC(C#N)(C#N)[C@H]2C3CCCC3C[C@@H]12 (some centres not stated)	MOLT-4	inactive
CCOC(=O)NC(=O)c1cn(CCCOC(=O)CCCCCCCCC(=O)OCCCn2cc(C(=O)NC(=O)OCC)c(=O)[nH]c2=O)c(=O)[nH]c1=O	MOLT-4	inactive

What was the test verdict on CN=S(=O)(C[C@]1(O)CC2OC1C1OC(C)(C)OC21)c1ccccc1 (some centres not stated) ?
inactive

What was the test verdict on C#CCN(Cc1ccc2nc(-c3ccccc3)c(Cl)nc2c1)c1ccc(Cl)c(Cl)c1 ?
inactive

What was the test verdict on Cc1c(C)c2ccc3oc4ccccc4c3c2oc1=O ?
inactive

What was the test verdict on COC(=O)[C@]12CC[C@H]3CN(C(=O)OCc4ccccc4)[C@H]([C@H]31)[C@H](c1ccco1)N2 ?
inactive

What was the test verdict on CCCC(=O)O[C@H]1C=C2C[C@@]34SS[C@]5(CC6=C[C@H](OC(C)=O)[C@@H]7O[C@@H]7[C@H]6N5C3=O)C(=O)N4[C@@H]2[C@H]2O[C@H]21 ?
active

What was the test verdict on Nc1nc(Cl)c(N)c(NCC2(CO)CCC(OCc3ccccc3)C2)n1 (configuration not stated) ?
inactive

What was the test verdict on CN(Cc1ccccc1)c1cc(=O)n(C)c(=O)[nH]1 ?
inactive

What was the test verdict on O=C(NO)c1cccc(OCc2ccc(Br)cc2)c1 ?
inactive

What was the test verdict on Cc1ccc2c(=O)c(C(=O)Nn3c(C)csc3=S)c[nH]c2n1 ?
inactive

What was the test verdict on CN1CCN(Cc2nc3cccc4c3c([n+]2[O-])-c2ccccc2-4)CC1 ?
inactive

What was the test verdict on CN(C)c1ccc2c3c(c(=O)oc2c1)CCC3 ?
inactive
